Hey, just so you know, these numbers are from paper PMC3989846.

Test: Plasma pharmacokinetics after single intravenous or intragastric dose
Assay type: in vivo, male ICR mice
Conditions: male, ICR, mouse, in vivo; intravenous 5 mg/kg; plasma; read-out: Tmax
Measurement Kind: Tmax (min)
Kindly provide the numeric value in min only, without the unit symbol.

Give reported Tmax value for COc1cc(NC(C)CCCN)c2ncccc2c1 (stereo not shown) 4.8

====

Experiment: Plasma pharmacokinetics after single intravenous or intragastric dose
Format: in vivo, male ICR mice
Conditions: male, ICR, mouse, po; intragastric 20 mg/kg; plasma; read-out: t1/2 elimination (converted)
Measurement Kind: half-life
# output: numeric value plus its unit

Give reported half-life value for COc1cc(C)c2c(Oc3cccc(C(F)(F)F)c3)c(OC)cc(NC(C)CCCN)c2n1 (stereo not shown) 50.9 h
